- test_target: UniProt:Q9X6J6
- Sequence (Q9X6J6 whole entry): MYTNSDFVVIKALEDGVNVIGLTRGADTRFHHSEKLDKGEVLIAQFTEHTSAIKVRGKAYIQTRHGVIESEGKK
- Type: binding, B. stearothermophilus
- measurement_parameters: 1/K 0, NN model, dissociation constant for isolated sites, ~25°C
property_measured: Kd (µM)
Give bare numbers, in µM.

Ask: Data request, read-out Kd, for N[C@@H](Cc1c[nH]c2ccccc12)C(=O)O
Result: 36

----------
- test_target: Bha TRAP12 (Halalkalibacterium halodurans)
- Sequence (Q9KCC6 whole entry): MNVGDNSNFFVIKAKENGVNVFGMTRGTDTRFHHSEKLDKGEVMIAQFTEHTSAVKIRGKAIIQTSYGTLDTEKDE
- Type: binding, B. halodurans
- measurement_parameters: 1/(αK 0), NN model, dissociation constant for sites with one bound neighbor, ~25°C
property_measured: pKd
Answers are plain numbers, as −log10 of the molar value.

Ask: Which measured pKd belongs to N[C@@H](Cc1c[nH]c2ccccc12)C(=O)O , tested on Bha TRAP12 (Halalkalibacterium halodurans)?
Result: 5.55
